Molecular target: T1, ProQNTD (FinO domain of ProQ) (Escherichia coli, UniProt P45577 1-130)
T1 sequence: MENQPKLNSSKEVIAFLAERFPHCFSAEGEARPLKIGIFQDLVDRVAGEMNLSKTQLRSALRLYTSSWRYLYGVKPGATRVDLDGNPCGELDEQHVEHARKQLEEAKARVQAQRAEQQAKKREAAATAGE
Assay: EMSA; 25 mM Tris-HCl pH 7.5, 150 mM NaCl, 5% glycerol, 1 mM MgCl2, 1 nM 32P-RNA, 30 min at room temperature; native 6% PAGE in 0.5x TBE at 4 C
Settings: protein: recombinant; tags: pET-15b construct; label: 32P
Quantity kind: Kd (nM)
Respond with the bare value in nM.

Bench note: what Kd did FinP A39U;G75U (structured_RNA) RNA: GGAUACAUAGGAACCUCCUCACAAAGGAUUCUAUGGACUGUCGAUGCAGGGAGUUCACGUCUCCCUGCAUCGGCUAUUUU show? 6.2

Bench note: what Kd did malM-3' U64A;U85G (structured_RNA) RNA: GCUUUAUCAGCAGUGUAAAAGGCAAGGGGUAAUUACGCCCCACAGUGCUGAUUUUGCAACAACAGGUGCGUCUCCUGGCGCACCGUUUUUU show? 1.9

Bench note: what Kd did FinP A39U;G75U;A76U (structured_RNA) RNA: GGAUACAUAGGAACCUCCUCACAAAGGAUUCUAUGGACUGUCGAUGCAGGGAGUUCACGUCUCCCUGCAUCGGCUUUUUU show? 9.4
